- methodNotes: Cytotoxicity against HLF1 cells after 72 hrs by MTT assay
- Assay type: functional, cell-based
- setupConditions: Homo sapiens, HLF1, 72 h
pIC50: −log10 of the molar value.
reportedProperty: pIC50

molecule	result
COc1cc([C@@H]2c3cc4c(cc3[C@@H](O[C@@H]3O[C@@H]5CO[C@@H](C)O[C@H]5[C@H](O)[C@H]3O)[C@H]3COC(=O)[C@H]23)OCO4)cc(OC)c1O [ETOPOSIDE]	< 4.40
